Test system: Wolbachia pipientis
Assay: Anti-Wolbachia Cell-Based Screen
Format: functional
Set-up: scale not given: in the data most compounds retested in dose-response had high values
Details: 5 µM
Among all 48,000 compounds or so, about 13,000 (27%) showed an effect of 50% or more. Some of the results follow.
Observed property: Percent Effect (%)
Write down the numeric answer in % and omit the unit.

Observe how each entry below is paired with its result.
{"Compound": "c1cncc(CCc2nc(C3CC3)nn2-c2ccc3c(c2)OCCO3)c1", "Percent Effect / %": -5.22}
{"Compound": "Cn1cnnc1CNC(=O)Nc1cc(C(F)(F)F)c[nH]c1=O", "Percent Effect / %": -11.16}
{"Compound": "Cc1c(-c2nc(-c3cccc(CN4CCOCC4)c3)no2)cnn1C", "Percent Effect / %": -3.312}
{"Compound": "CC(C)CN1CCN(C(=O)Nc2cc(C(F)(F)F)c[nH]c2=O)CC1", "Percent Effect / %": -8.263}
{"Compound": "CN(C)C(=O)CN1C[C@H]2CCN(Cc3ccccc3)CC[C@H]2S1(=O)=O.O=C(O)C(F)(F)F", "Percent Effect / %": -15.21}

// moving on: another record for Percent Effect
Prompt: Form: Entry = `N#CCCN(C(=O)CCc1cccnc1)c1ccc2c(c1)OCCO2` | System = Wolbachia pipientis | Percent Effect = ____
Completion: 88.06

###

System: Wolbachia pipientis
Assay: Anti-Wolbachia Cell-Based Screen
Assay type: functional
Set-up: scale not given: in the data most compounds retested in dose-response had high values
Conditions: 5 µM
The whole screen tested about 48,000 compounds, of which about 13,000 (27%) showed an effect of 50% or more. The list shows a part of the results.
compounds and their reported Percent Effect
Report field: quantity (unit follows the number).

Completed entries (count: 6):
{"Compound": "Cn1ncc2c(NCCOCc3ccccc3)nc(C3CCCC3)nc21", "Value observed": "18.15%"}
{"Compound": "N[C@H]1CC[C@@H](NC(=O)c2ccc3nc(-c4ccc(F)cc4)cn3c2)CC1", "Value observed": "-22.5%"}
{"Compound": "Cn1cnc2c1C(COCC1CC1)CN(Cc1ccc3c(c1)OCO3)C2.O=C(O)C(F)(F)F.O=C(O)C(F)(F)F (centres undefined)", "Value observed": "34.98%"}
{"Compound": "O=C(NCC1CCOC1)c1csc(-c2ccco2)n1 (centres undefined)", "Value observed": "5.751%"}
{"Compound": "O=S1(=O)C[C@@H]2[C@H](C1)N(Cc1ncc[nH]1)CCN2CCCc1ccccc1", "Value observed": "97.44%"}
{"Compound": "COCC1CN(Cc2ccc(OC)cc2)Cc2nn(C)cc21.O=C(O)C(F)(F)F (centres undefined)", "Value observed": "-23.14%"}

Prompt: State the recorded Percent Effect for this entry: COc1ccc(OC)c(S(=O)(=O)NCC2(OC)CCSC2)c1 (centres undefined)
Completion: -19.77%

Prompt: Report Percent Effect for CCOCC1CN(Cc2ccc3c(c2)OCO3)Cc2ncn(C)c21 (centres undefined) please.
Completion: 101.2%

Prompt: # query: Percent Effect of entry COCC1CN(Cc2ccc3c(c2)OCO3)Cc2ncn(C)c21.O=C(O)C(F)(F)F.O=C(O)C(F)(F)F (centres undefined)
Completion: 103.2%

Prompt: Please give the measured Percent Effect for this compound: CC(NC(=O)C1CCN(S(N)(=O)=O)CC1)c1cccc(OC(F)F)c1 (centres undefined)
Completion: 6.374%

Prompt: Name the reported Percent Effect value associated with the compound `Cc1nc(NS(=O)(=O)c2ccc(F)c(Br)c2)no1`
Completion: -14.77%

Prompt: Entry `CO[C@H]1CN(C)S(=O)(=O)[C@@]12CCN(Cc1ccccc1)C2` has what Percent Effect?
Completion: 109.7%

Prompt: Need Percent Effect of `CN1CCC(c2cccc(CCC(=O)NCC(N)=O)n2)CC1` , thanks.
Completion: 102.3%

Prompt: Fill in the blank: the reported Percent Effect of O=C(NCC1CCOC1)c1csc(-c2cccc(Cl)c2)n1 (centres undefined) is ____.
Completion: 7.495%

The reported numbers originate from ChEMBL document CHEMBL3988442.
